Tested on: PfAP2-LT AP2 domain (GST-tagged)
Experiment: gcPBM binding intensity (ln(normalized median fluorescence intensity)); higher = stronger DNA binding
Over roughly 25,000 sequences, “ln(normalized median fluorescence intensity)” has its median near 8.9; the highest 2% begin near 10. The sample as a whole holds a higher share of the highest values than the screen did.
quantity: gcPBM binding intensity (ln)
Just the number.

Identify measured gcPBM binding intensity (ln) associated with ATTTATGAAAGAAATAGTACACACATAAACATTTGT [XGTACX_site5862] 9.03

Identify measured gcPBM binding intensity (ln) associated with TAAATACATTTATGTACACACACATAGATGTATATT [CACACA_site5618] 9.22

Identify measured gcPBM binding intensity (ln) associated with TTTTCAATTAATAATACACACATGTATATATCATTA [CACACA_site7539] 8.81

Identify measured gcPBM binding intensity (ln) associated with AGGAGGAACAAACAAAACAATAAAAATTATAATAAA [GTGCAC_negctrl_site206] 8.78

Identify measured gcPBM binding intensity (ln) associated with TATATCTATAATATTACACACATATATTTATATTTT [CACACA_site7595] 8.95
